Experiment: The drug is tested on Blautia luti strain: DSM14534 for biotransformation. The drug concentrations were measured before and after a 12-h incubation by liquid-chromatography-coupled mass spectrometry (LC–MS)
Format: ADME
Parameters: dose 2 uM, timepoint 0 vs 12 hours
Settings: 2 µM
quantity.kind: Bacterial Biotransformation

Worked examples follow.
OC(c1cc(C(F)(F)F)nc2c(C(F)(F)F)cccc12)C1CCCCN1 (configuration not stated) [MEFLOQUINE]; Compound NOT metabolized
CCCN(CCC)CCc1cccc2c1CC(=O)N2 [ROPINIROLE]; Compound NOT metabolized
CO[C@]12C[C@@H](COC(=O)c3cncc(Br)c3)CN(C)[C@@H]1Cc1cn(C)c3cccc2c13 [NICERGOLINE]; Compound NOT metabolized
CC(=O)OCC(=O)[C@@]1(OC(C)=O)[C@@H](C)C[C@H]2[C@@H]3C[C@H](F)C4=CC(=O)C=C[C@]4(C)[C@@]3(F)[C@@H](O)C[C@@]21C [DIFLORASONE DIACETATE]; Compound metabolized
COc1ccc2c(c1OC)C(=O)O[C@@H]2[C@H]1c2c(cc3c(c2OC)OCO3)CCN1C [NOSCAPINE]; Compound metabolized

Look up Bacterial Biotransformation for the entries below, preserving their order.
1. CCN(CC)CCCC(C)Nc1c2ccc(Cl)cc2nc2ccc(OC)cc12 (configuration not stated) [QUINACRINE]
2. CN1[C@@H]2CC[C@H]1C[C@@H](OC(=O)c1c[nH]c3ccccc13)C2 [TROPISETRON]

Compound NOT metabolized
Compound NOT metabolized
